molecular target: recombinant human BCMA-his protein (Acro biosystems, Cat #BCA-H522Y) (human) (UniProt Q02223); test: BLI Octet RED96, antibody on AHC sensor, BCMA-his in solution
Sequence (Q02223 1-54, stated change not applied): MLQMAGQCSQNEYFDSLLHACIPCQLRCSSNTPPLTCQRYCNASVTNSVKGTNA
observed property: koff

Q: Can you look up the measured koff of huB1H2-V33 (antibody, human IgG1, kappa, V domains shown, Humanized IgG1/kappa; cell supernatant in the Octet assay, purified antibody in Biacore, ELISA and FACS) VH: QVQLVQSGAEVKKPGASVKVSCKASGYTLTNYVMHWVRQAPGQGLEWIGFIIPFNDGTKYNEHFKGRVTITSDTSISTAYMQLSSLRSEDTAVYYCARYDFEGYFDVWGQGTLVTVSS VL: DIQMTQSPSSLSASVGDRVTITCSASQDITNFLNWYQQKPGKAPKLLIYSTSRLHSGVPSRFSGSGSGTDFTFTISSLQPEDIATYYCQQYSNLPWTFGQGTKVEIKR for me?
Result: 0.00341 s⁻¹

Q: Can you look up the measured koff of huB1H2-V22 (antibody, human IgG1, kappa, V domains shown) VH: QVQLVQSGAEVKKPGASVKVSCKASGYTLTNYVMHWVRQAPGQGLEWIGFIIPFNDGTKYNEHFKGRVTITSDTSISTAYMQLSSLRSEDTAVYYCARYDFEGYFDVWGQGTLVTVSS VL: DIQMTQSPSSLSASVGDRVTITCSASQDITNFLNWYQQKPGKAPKLLIYSTSRLHSGVPSRFSGSGSGTDYTLTISSLQPEDIATYYCQQYSNLPWTFGQGTKVEIKR for me?
Result: 0.000862 s⁻¹

Q: Can you look up the measured koff of huB1H2-V6 (antibody, human IgG1, kappa, V domains shown) VH: QVQLVQSGAEVKKPGASVKVSCKASGYTLTNYVMHWVRQAPGQGLEWIGFIIPFNDGTKYNEHFKGRVTITSDKSISTAYMQLSSLRSEDTAVYYCARYDFEGYFDVWGQGTLVTVSS VL: DIQMTQSPSSLSASVGDRVTITCSASQDITNFLNWYQQKPGKTVKLLIYSTSRLHSGVPSRFSGSGSGTDYTFTISSLQPEDIATYYCQQYSNLPWTFGQGTKVEIKR for me?
Result: 0.00044 s⁻¹
